Values compiled from paper PMC4721923.

Tested on: HT-29 cells
TEST DETAILS: Quantification of cell-associated compound by HPLC, HT-29
Type: cell-based, human
ASSAY CONDITIONS: 30 μM, 10 minutes, mean ± SEM
METRIC: amount of cell-associated compound

Reference set (3 entries):
| COMPOUND | TEST SYSTEM | METRIC | RESULT |
| --- | --- | --- | --- |
| COC(=O)CCCc1nc2cc(N(CCCl)CCCl)ccc2n1C | HT-29 cells | amount of cell-associated compound | 2.05 ± 0.39 nmol/10^6 cells |
| Cn1c(CCCC(=O)OCCN2CCCC2)nc2cc(N(CCCl)CCCl)ccc21 | HT-29 cells | amount of cell-associated compound | 5.01 ± 0.34 nmol/10^6 cells |
| Cn1c(CCCC(=O)O)nc2cc(N(CCCl)CCCl)ccc21 [Compound 1, bendamustine, reference compound] | HT-29 cells | amount of cell-associated compound | 0.07 ± 0.011 nmol/10^6 cells |

As a next step, examine the compound that follows.
Per the record, `Cn1c(CCCC(=O)OCCN2CCOCC2)nc2cc(N(CCCl)CCCl)ccc21` has amount of cell-associated compound of 1.59 ± 0.23 nmol/10^6 cells

###

Examples of molecules with documented pIC50 follow.
TEST SYSTEM: OCT1 (Homo sapiens, UniProt O15245)
Construct: containing the full length SLC22A1 cDNA (NM_003057) encoding the human OCT1 protein; expressed in transfected cells
Sequence (O15245 whole entry): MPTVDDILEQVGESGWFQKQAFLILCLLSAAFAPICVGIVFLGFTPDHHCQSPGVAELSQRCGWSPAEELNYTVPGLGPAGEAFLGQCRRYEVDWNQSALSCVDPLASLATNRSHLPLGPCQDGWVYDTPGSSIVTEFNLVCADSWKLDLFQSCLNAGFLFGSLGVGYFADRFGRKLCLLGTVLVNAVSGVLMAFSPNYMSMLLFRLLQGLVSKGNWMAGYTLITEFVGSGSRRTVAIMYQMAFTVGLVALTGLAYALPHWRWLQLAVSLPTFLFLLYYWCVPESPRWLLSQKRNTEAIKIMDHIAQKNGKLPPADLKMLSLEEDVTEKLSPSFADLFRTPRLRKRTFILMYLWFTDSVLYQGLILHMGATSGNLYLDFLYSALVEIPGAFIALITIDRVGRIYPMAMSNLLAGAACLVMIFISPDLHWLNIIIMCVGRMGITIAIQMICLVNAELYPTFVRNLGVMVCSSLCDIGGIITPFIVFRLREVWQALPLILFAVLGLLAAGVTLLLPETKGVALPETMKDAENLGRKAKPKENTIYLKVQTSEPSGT
TEST DETAILS: Flow cytometric ASP+-uptake inhibition, HEK-OCT1
Assay type: cell-based
ASSAY CONDITIONS: IC50, inhibition of ASP+-uptake, HEK-OCT1; 1 μM ASP+; ± SEM (N = 3)
Would you please state pIC50, meaning minus log10 of the concentration in mol/L, as a bare number?

| MOLECULE | TEST SYSTEM | pIC50 |
| --- | --- | --- |
| Cn1c(CCCC(=O)OCCN2CCOCC2)nc2cc(N(CCCl)CCCl)ccc21 [Compound 4] | OCT1 (Homo sapiens, UniProt O15245) | 5.00 |
| Cn1c(CCCC(=O)OCCN2CCCC2)nc2cc(N(CCCl)CCCl)ccc21 [Compound 5] | OCT1 (Homo sapiens, UniProt O15245) | 6.46 |

Now consider the entry below.
The value of pIC50 measured for the molecule COC(=O)CCCc1nc2cc(N(CCCl)CCCl)ccc2n1C [Compound 2] turned out to be 4.95

###

TEST SYSTEM: OCT3 (Homo sapiens)
Construct: expressed in transfected cells; host or cells: HEK293 (HEK-OCT3)
Sequence (O75751 1-556): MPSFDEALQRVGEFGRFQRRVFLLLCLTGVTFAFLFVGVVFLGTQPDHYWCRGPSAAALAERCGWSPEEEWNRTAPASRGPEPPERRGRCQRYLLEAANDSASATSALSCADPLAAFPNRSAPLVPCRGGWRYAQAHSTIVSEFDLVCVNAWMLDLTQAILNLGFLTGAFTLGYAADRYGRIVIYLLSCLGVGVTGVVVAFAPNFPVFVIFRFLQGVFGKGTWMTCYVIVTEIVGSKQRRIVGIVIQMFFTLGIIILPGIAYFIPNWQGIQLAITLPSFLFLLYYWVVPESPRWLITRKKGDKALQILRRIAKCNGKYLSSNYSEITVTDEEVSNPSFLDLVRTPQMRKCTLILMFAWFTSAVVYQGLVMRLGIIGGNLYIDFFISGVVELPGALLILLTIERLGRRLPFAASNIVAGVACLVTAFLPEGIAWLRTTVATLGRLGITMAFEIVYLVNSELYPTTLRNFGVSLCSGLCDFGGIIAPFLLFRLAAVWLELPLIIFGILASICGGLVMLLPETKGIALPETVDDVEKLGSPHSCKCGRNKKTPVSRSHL
TEST DETAILS: Flow cytometric ASP+-uptake inhibition, HEK-OCT3
Format: cell-based
METRIC: pIC50
When answering, recall that pIC50 equals minus log10 of the concentration in mol/L, and write that number alone.

| COMPOUND | pIC50 |
| --- | --- |
| COC(=O)CCCc1nc2cc(N(CCCl)CCCl)ccc2n1C [Compound 2] | 5.29 |
| Cn1c(CCCC(=O)OCCN2CCCC2)nc2cc(N(CCCl)CCCl)ccc21 [Compound 5] | 5.47 |

Consider the record given below.
Per the record, Cn1c(CCCC(=O)OCCN2CCOCC2)nc2cc(N(CCCl)CCCl)ccc21 [Compound 4] has pIC50 of 5.29

###

Items are presented alongside their recorded IC50.
Tested on: U-937 cells (histiocytic lymphoma)
TEST DETAILS: Chemosensitivity assay (MTT-assay), U-937
Assay type: cell-based, human
ASSAY CONDITIONS: Homo sapiens, U-937, 96 h, 96 hours of incubation, mean ± SEM
All answers are understood in nM, so give the number only.

| SMILES STR | TEST SYSTEM | DISPLAY UNIT | IC50 |
| --- | --- | --- | --- |
| Cn1c(CCCC(=O)OCCN2CCOCC2)nc2cc(N(CCCl)CCCl)ccc21 | U-937 cells (histiocytic lymphoma) | nM | 3200 |

--- query ---
For `CN1CCN(CCOC(=O)CCCc2nc3cc(N(CCCl)CCCl)ccc3n2C)CC1` the compound record lists IC50 as 1300

###

Test system: Capan-1 cells (pancreatic adenocarcinoma)
TEST DETAILS: Chemosensitivity assay (crystal violet assay), Capan-1
Format: cell-based, human
ASSAY CONDITIONS: 96 hours of incubation, mean ± SEM
METRIC: pIC50
# pIC50: negative log10 of molar concentration; output just the value

response.value for Cn1c(CCCC(=O)O)nc2cc(N(CCCl)CCCl)ccc21 [Compound 1, bendamustine, reference compound] (field: pIC50) = 4.72

###

Tested on: MG-63 cells (osteosarcoma)
TEST DETAILS: Chemosensitivity assay (crystal violet assay), MG-63
Format: cell-based, human
ASSAY CONDITIONS: 96 hours of incubation, crystal violet assay, mean ± SEM
Description: Depending on the characteristics of the cells, two different assays were performed. For adherently growing cells (HaCaT, HT-29, NCI-H460, SK-MEL-3, MG-63, Capan-1), cytotoxic and cytocidal effects were determined in the crystal violet assay, whereas for loosely adherent cells (LNCaP, SK-ES-1) and cells growing in suspension (HEL 92.1.7, Jurkat, U-937) the MTT-assay was used with minor modifications. […] Effects were quantified as previously described for both assays.
METRIC: IC50 (µM)
Please reply with the bare figure in µM and do not write the unit itself.

Measured IC50 of Cn1c(CCCC(=O)O)nc2cc(N(CCCl)CCCl)ccc21 [Compound 1, bendamustine, reference compound] : 55.8

###

System: SK-ES-1 cells (Ewing's sarcoma)
TEST DETAILS: Chemosensitivity assay (MTT-assay), SK-ES-1
Format: cell-based, human
ASSAY CONDITIONS: Homo sapiens, SK-ES1, 96 h, 96 hours of incubation, mean ± SEM
METRIC: IC50 (nM)
Respond with the bare value in nM.

| COMPOUND | IC50 (nM) |
| --- | --- |
| CN1CCN(CCOC(=O)CCCc2nc3cc(N(CCCl)CCCl)ccc3n2C)CC1 [Compound 7] | 190 |

Lab book: IC50 of Cn1c(CCCC(=O)OCCN2CCOCC2)nc2cc(N(CCCl)CCCl)ccc21 [Compound 4] noted as 900

For Cn1c(CCCC(=O)OCCN2CCCC2)nc2cc(N(CCCl)CCCl)ccc21 [Compound 5] the compound record lists IC50 as 90

IC50 reading for Cn1c(CCCC(=O)OCCN2CCCCC2)nc2cc(N(CCCl)CCCl)ccc21 [Compound 6] : 190

###

Tested on: NCI-H460 cells
TEST DETAILS: Quantification of cell-associated compound by HPLC, NCI-H460
Type: cell-based, human
ASSAY CONDITIONS: 30 μM, 10 minutes, mean ± SEM
// amount of cell-associated compound lookup, one value per entry
Numeric only. Scale: nmol/10^6 cells

The recorded amount of cell-associated compound for entry Cn1c(CCCC(=O)O)nc2cc(N(CCCl)CCCl)ccc21 [Compound 1, bendamustine, reference compound] equals 0.03

###

The following molecules are shown together with reported pIC50 values.
Tested on: U-937 cells (histiocytic lymphoma)
TEST DETAILS: Chemosensitivity assay (MTT-assay), U-937
Assay type: cell-based, human
ASSAY CONDITIONS: Homo sapiens, U-937, 96 h, 96 hours of incubation, mean ± SEM
Entry type: numeric. Quantity: pIC50, the -log10 of concentration in molar units.

| MOLECULE | pIC50 |
| --- | --- |
| CCOC(=O)CCCc1nc2cc(N(CCCl)CCCl)ccc2n1C [Compound 3] | 5.72 |

Given item Cn1c(CCCC(=O)OCCN2CCCCC2)nc2cc(N(CCCl)CCCl)ccc21 [Compound 6] , the value recorded as its pIC50 is 5.96

Documented pIC50 of Cn1c(CCCC(=O)OCCN2CCCC2)nc2cc(N(CCCl)CCCl)ccc21 [Compound 5] : 6.08

Value of pIC50 reported for the molecule COC(=O)CCCc1nc2cc(N(CCCl)CCCl)ccc2n1C [Compound 2] is 5.74
